Data provenance: the supplement of paper PMC8967900

# System: COG-LL-394h
# ASSAY_DETAILS: selective drug sensitivity score (sDSS, relative to normal bone marrow) (sDSS (score)); higher = more potent and effective on the cell line relative to normal bone marrow cells;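 note: ALL cell lines in 384-well plates, five doses spanning 10,000-fold, each plate scaled between vehicle and 100 µmol/L benzalkonium chloride controls, sDSS an adapted area-under-curve metric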
# RUN_PARAMETERS: 72 h
METRIC_NAME: selective drug sensitivity score

INSERT INTO measurements (molecule, assay_result) VALUES
  ('Cn1c(Nc2ccc(C(F)(F)F)cc2)nc2cc(Oc3ccnc(-c4ncc(C(F)(F)F)[nH]4)c3)ccc21 [NVP-RAF265] (top concentration 1000 nM)', 5.98),
  ('CC(C)NC(=O)COc1cccc(-c2nc(Nc3ccc4[nH]ncc4c3)c3ccccc3n2)c1 [KD025] (top concentration 5000 nM)', -1.36),
  ('N#CCNC(=O)c1ccc(-c2ccnc(Nc3ccc(N4CCOCC4)cc3)n2)cc1 [Momelotinib] (top concentration 10000 nM)', -3.92);

----------
# Test system: TMD5
# ASSAY_DETAILS: selective drug sensitivity score (sDSS, relative to normal bone marrow) (sDSS (score)); higher = more potent and effective on the cell line relative to normal bone marrow cells
# RUN_PARAMETERS: 72 h
Recorded selective drug sensitivity score by entry
METRIC_NAME: selective drug sensitivity score

INSERT INTO measurements (molecule, metric_name, assay_result) VALUES
  ('Nc1nc(OCc2cc(Br)cs2)c2[nH]cnc2n1 [Lomeguatrib] (top concentration 10000 nM)', 'selective drug sensitivity score', 0),
  ('O[C@H]1CC[C@H](Nc2ncc3nc(Nc4c(F)cc(F)cc4F)n([C@H]4CCOC4)c3n2)CC1 [Tanzisertib] (top concentration 10000 nM)', 'selective drug sensitivity score', 0),
  ('Sc1ncnc2nc[nH]c12 [Mercaptopurine] (top concentration 10000 nM)', 'selective drug sensitivity score', 0);

----------
# Test system: P12-ICHIKAWA
# ASSAY_DETAILS: selective drug sensitivity score (sDSS, relative to normal bone marrow) (sDSS (score)); higher = more potent and effective on the cell line relative to normal bone marrow cells
# RUN_PARAMETERS: 72 h
METRIC_NAME: selective drug sensitivity score

INSERT INTO measurements (molecule, assay_result) VALUES
  ('CC1CCC(n2c3cnccc3c3cnc(Nc4ccc5c(n4)CCN(C(=O)CO)C5)nc32)CC1 (stereo not given) [AMG-925] (top concentration 1000 nM)', 3.84),
  ('Cc1cc(Nc2ncc(Cl)c(Nc3ccccc3S(=O)(=O)C(C)C)n2)c(OC(C)C)cc1C1CCNCC1 [Ceritinib] (top concentration 2500 nM)', -3.44),
  ('COc1ccc(S(=O)(=O)Nc2cccnc2Nc2ccc(O)cc2)cc1 [ABT-751] (top concentration 10000 nM)', 10.4),
  ('N[C@@H]1CCCN(c2c(/C=C3\SC(=O)NC3=O)cccc2-c2ccccc2)C1 [AZD1208] (top concentration 10000 nM)', -4),
  ('COCCOc1cnc2ccn([C@H](C)c3nnc4c(F)cc(-c5cnn(C)c5)cn34)c(=O)c2c1 [AMG-337] (top concentration 10000 nM)', -0.06),
  ('CNC(=O)CN1CCC(Oc2cc3c(Nc4cccc(Cl)c4F)ncnc3cc2OC)CC1 [Sapitinib] (top concentration 1000 nM)', 0),
  ('Cn1c(Nc2ccc(C(F)(F)F)cc2)nc2cc(Oc3ccnc(-c4ncc(C(F)(F)F)[nH]4)c3)ccc21 [NVP-RAF265] (top concentration 1000 nM)', 2.58),
  ('Cc1noc2c1-c1ccccc1C(c1ccc(Cl)cc1)=N[C@H]2CC(N)=O [CPI-0610] (top concentration 10000 nM)', 4.4),
  ('Nc1nc(N)c2nc(-c3cccc(O)c3)c(-c3cccc(O)c3)nc2n1 [TG100-115] (top concentration 10000 nM)', -0.3),
  ('CC(C)Oc1ccc(C(=O)N[C@H](CNC(=O)CN(C)C)Cc2ccc(-c3cn4cccc([C@H](C)O)c4n3)cc2)cc1Cl (top concentration 10000 nM)', 7.28),
  ('CC(C)(C)C[C@@H]1N[C@@H](C(=O)N[C@H]2CC[C@H](O)CC2)[C@H](c2cccc(Cl)c2F)[C@]12C(=O)Nc1cc(Cl)ccc12 (top concentration 10000 nM)', -5.24),
  ('COc1cccc2c1C(=O)c1c(O)c3c(c(O)c1C2=O)C[C@@](O)(C(=O)CO)C[C@@H]3O[C@H]1C[C@H](N)[C@H](O)[C@H](C)O1 [Doxorubicin] (top concentration 1000 nM)', 5.08),
  ('O[C@H]1CC[C@H](Nc2ncc3nc(Nc4c(F)cc(F)cc4F)n([C@H]4CCOC4)c3n2)CC1 [Tanzisertib] (top concentration 10000 nM)', 0),
  ('C[C@@H](Oc1ccc2[nH]nc(/C=C/c3cnn(CCO)c3)c2c1)c1c(Cl)cncc1Cl (top concentration 1000 nM)', -2.64),
  ('CCC(C)(C)C(=O)O[C@H]1C[C@@H](C)C=C2C=C[C@H](C)[C@H](CC[C@@H]3C[C@@H](O)CC(=O)O3)[C@H]21 [Simvastatin] (top concentration 10000 nM)', 2.18),
  ('NC[C@@](O)(c1ccc(Cl)cc1)c1ccc(-c2cn[nH]c2)cc1 (top concentration 10000 nM)', 3.58),
  ('COc1ccccc1S(=O)(=O)Nc1ccc2c(c1)CN(C)C(=O)N2 [PFI-1] (top concentration 30000 nM)', 0.8),
  ('Nc1cc(COc2c(Cl)cc(C[C@H](N)C(=O)O)cc2Cl)c2oc(-c3ccccc3)nc2c1 [JPH203] (top concentration 5000 nM)', 0),
  ('CC(=O)Nc1cccc(-n2c(=O)n(C3CC3)c(=O)c3c(Nc4ccc(I)cc4F)n(C)c(=O)c(C)c32)c1 [Trametinib] (top concentration 250 nM)', -3.64),
  ('COc1cc2ncnc(Nc3cccc(Cl)c3F)c2cc1OC(=O)N1CCN(C)C[C@H]1C [AZD3759] (top concentration 1000 nM)', -0.04);
